Test: Stability in human hepatocytes assessed as compound remaining at 1 uM after 2 hrs
Assay type: ADME, cell-based, Hepatocyte
Settings: read-out: Stability
REPORTED_PROPERTY: remaining at 2 h, 1 µM (%)

SMILES_NOTATION: C[C@@H]1[C@H]2C[C@@H](C[C@H]1NC(=O)c1cc3c(F)cc(F)cc3[nH]1)C2(C)C
REPORTED_PROPERTY: remaining at 2 h, 1 µM
ENDPOINT_RESULT: 52

* * *

Assay: Permeability across basolateral to apical side in human Caco2 cells
Format: ADME, cell-based
Settings: Caco-2, read-out: permeability

SMILES_NOTATION: C[C@@H]1[C@H]2C[C@@H](C[C@H]1NC(=O)c1cc3c(F)cc(F)cc3[nH]1)C2(C)C
Papp B→A (×10⁻⁶ cm/s): 0.25
